# credit: patent US9790233B2

System: 15-PGDH luciferase fusion construct in Vaco503 reporter cell line
Test: 15-PGDH-luciferase fusion gene reporter induction, V503 cells
Type: cell-based
Settings: read-out: V503 reporter activity ([…]), […]; % induction over basal level; Table 17; read-out: V503 reporter activity (7.5 μM)
endpoint: activation at […] (%)
Give bare numbers, in %.

Before answering, review these 3 worked examples.
[[record]]
compound = "COc1ccc(OC)c(N(CC(=O)Nc2cccc(Br)c2)S(=O)(=O)c2ccc(OC)c(OC)c2)c1"
tgt = "15-PGDH luciferase fusion construct in Vaco503 reporter cell line"
observed_result = 16.2

[[record]]
compound = "COc1ccc(N(CC(=O)Nc2ccc(C(C)=O)cc2)S(=O)(=O)c2ccccc2)cc1Cl"
tgt = "15-PGDH luciferase fusion construct in Vaco503 reporter cell line"
observed_result = 103

[[record]]
compound = "COc1ccc(N(CC(=O)Nc2ccccc2Br)S(=O)(=O)c2ccc(C)cc2)c(OC)c1"
tgt = "15-PGDH luciferase fusion construct in Vaco503 reporter cell line"
observed_result = 72.6


Consider the record given below.
Give the measured activation at […] of COc1ccc(OC)c(N(CC(=O)NC(C)c2ccccc2)S(=O)(=O)c2ccc(OC)c(OC)c2)c1 (stereo not shown) . 36.1

----------
Consider the following compounds; for each one, report its activation at […].
Tested on: 15-PGDH luciferase fusion construct in LS174T reporter cell line
Test: 15-PGDH-luciferase fusion gene reporter induction, LS174T cells
Format: cell-based
Conditions: Homo sapiens, read-out: Ls174T-SC1 reporter activity, % ([…]), […], Table 18, read-out: Ls174T-SC1 reporter activity, % (2.5 μM)
One number for each entry, in %.

[[record]]
compound = "COc1ccc(OC)c(N(CC(=O)Nc2cccnc2)S(=O)(=O)c2ccc(OC)c(OC)c2)c1 [680599−58−0]"
endpoint = "activation at […]"
observed_result = 11.5

[[record]]
compound = "COc1ccc(OC)c(N(CC(=O)Nc2ccc(C)cc2)S(=O)(=O)c2ccccc2)c1 [311333-86-5]"
endpoint = "activation at […]"
observed_result = 30

[[record]]
compound = "COc1ccc(OC)c(N(CC(=O)Nc2ccc(F)cc2)S(=O)(=O)c2ccccc2)c1 [426231-26-7]"
endpoint = "activation at […]"
observed_result = 16.2

[[record]]
compound = "O=C(CN(c1ccc2c(c1)OCCO2)S(=O)(=O)c1ccccc1)Nc1cccnc1 [701217-00-7]"
endpoint = "activation at […]"
observed_result = -6.89


May I ask what activation at […] has been recorded for CCc1ccc(N(CC(=O)Nc2cccnc2)S(=O)(=O)c2ccccc2)cc1 [461439−84−9] ? 4.83

----------
Target: 15-PGDH protein (Homo sapiens (Human), UniProt P15428)
Sequence (P15428 whole entry): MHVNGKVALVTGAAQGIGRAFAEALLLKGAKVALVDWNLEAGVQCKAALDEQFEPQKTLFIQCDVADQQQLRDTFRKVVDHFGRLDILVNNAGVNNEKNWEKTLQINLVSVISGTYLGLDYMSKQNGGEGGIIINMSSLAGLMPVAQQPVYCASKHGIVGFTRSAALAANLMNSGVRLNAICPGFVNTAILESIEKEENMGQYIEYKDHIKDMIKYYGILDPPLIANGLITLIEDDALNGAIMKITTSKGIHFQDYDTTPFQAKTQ
Test: Inhibition of enzymatic activity of recombinant 15-PGDH in vitro (tritium transfer from PGE2 or NADH fluorescence)
Format: biochemical
Details: tritium assay; FIG. 12; read-out: IC50
endpoint: pIC50
Give bare numbers, as −log10 of the molar value.

Param readout= pIC50; system= 15-PGDH protein (Homo sapiens (Human), UniProt P15428); entry= COc1ccc(OC)c(N(CC(=O)Nc2cccnc2)S(=O)(=O)c2ccccc2)c1 ; returns value. 5.08

----------
Target: 15-PGDH protein (Homo sapiens (Human))
Assay: Inhibition of enzymatic activity of recombinant 15-PGDH in vitro (tritium transfer from PGE2 or NADH fluorescence)
Format: biochemical
Details: recombinant 15-PGDH in vitro; Table 2, cells printed in uM; read-out: Enzyme inhibition (IC50)
endpoint: IC50

For CCCC[S+]([O-])c1ncccc1[N+](=O)[O-] (stereo not shown) , what is its reported IC50? > 7.5 µM
